tested on: CASKI; assay: Confirmatory qHTS for gynecologic anti-cancer compounds from libraries of approved drugs and bioactive compounds; settings: gynecologic cancer cell panel viability, ATPlite luminescence, 48 h; series mostly up to 57.6 µM; also: nearly all actives have a fitted effect of over 55% in size; also: potency is read from the fitted curve at half-maximal effect
Records with an inconclusive call do not appear. Calls of active or inactive are those of the source. Calls follow the shape of the dose curve; as a rule, active = well fitted cell-killing curve with a large enough effect; inconclusive = small, poorly fitted or top-dose-only effect, or effect the other way; inactive = no such curve, though single readings can be large or run the other way.
metric name: Potency

Example molecules with recorded Potency:
>  <molecule>
Cc1ccccc1C(OCCN(C)C)c1ccccc1 (configuration not stated)

>  <result>
inactive

$$$$
>  <molecule>
CCOc1cc2ncc(C#N)c(Nc3ccc(F)c(Cl)c3)c2cc1NC(=O)/C=C/CN(C)C

>  <result>
8.63 µM (active)

$$$$
>  <molecule>
CCN1C[C@H](C)n2c(c(O)c3c(=O)n(Cc4ccc(F)c(Cl)c4)nc(C(=O)NC)c32)C1=O

>  <result>
inactive

$$$$
>  <molecule>
CC(Oc1ccc2[nH]nc(/C=C/c3cnn(CCO)c3)c2c1)c1c(Cl)cncc1Cl (configuration not stated)

>  <result>
5.44 µM (active)

$$$$

Noted for CN(c1nccc(=O)[nH]1)C1CCN(c2nc3ccccc3n2Cc2ccc(F)cc2)CC1 : its Potency reads inactive

Noted for C=CC(=O)Nc1cc2c(Nc3ccc(F)c(Cl)c3)ncnc2cc1OCCCN1CCOCC1 : its Potency reads 27.3 µM (active)

Noted for Cn1c(=O)c(F)c(Nc2ccc(I)cc2F)c2c(=O)n(CC(O)CO)cnc21 (configuration not stated) : its Potency reads 24.3 µM (active)

Noted for Cc1cc(Nc2cc(N3CCN(C)CC3)nc(Sc3ccc(NC(=O)C4CC4)cc3)n2)n[nH]1 : its Potency reads inactive

Noted for O=c1[nH]c(=O)n([C@H]2C[C@H](O)[C@@H](CO)O2)cc1Br : its Potency reads inactive
